Where do these numbers come from? They come from ChEMBL document CHEMBL5126625.

Reported IC50 values follow for various molecules
Target: Myeloperoxidase (Homo sapiens, UniProt P05164)
Sequence (P05164 whole entry): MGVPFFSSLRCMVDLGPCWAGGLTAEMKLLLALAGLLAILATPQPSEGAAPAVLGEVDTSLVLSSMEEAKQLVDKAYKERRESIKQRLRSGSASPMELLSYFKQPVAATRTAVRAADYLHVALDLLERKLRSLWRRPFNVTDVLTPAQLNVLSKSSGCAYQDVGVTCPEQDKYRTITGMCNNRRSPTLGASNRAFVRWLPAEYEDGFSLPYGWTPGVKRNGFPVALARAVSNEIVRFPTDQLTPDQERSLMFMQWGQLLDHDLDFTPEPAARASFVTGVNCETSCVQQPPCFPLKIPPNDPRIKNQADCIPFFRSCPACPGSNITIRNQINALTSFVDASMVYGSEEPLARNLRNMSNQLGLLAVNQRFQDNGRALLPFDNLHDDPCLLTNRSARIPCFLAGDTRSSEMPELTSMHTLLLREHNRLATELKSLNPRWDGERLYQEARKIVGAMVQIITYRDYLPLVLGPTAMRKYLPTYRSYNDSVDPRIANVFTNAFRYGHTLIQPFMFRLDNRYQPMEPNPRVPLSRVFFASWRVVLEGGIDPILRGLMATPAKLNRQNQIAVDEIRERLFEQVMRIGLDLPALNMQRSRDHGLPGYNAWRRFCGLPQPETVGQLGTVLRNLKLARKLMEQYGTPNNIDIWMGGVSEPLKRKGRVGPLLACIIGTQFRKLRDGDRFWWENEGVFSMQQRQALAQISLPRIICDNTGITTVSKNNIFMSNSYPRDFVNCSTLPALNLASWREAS
Test: Inhibition of MPO in human HL-60 cells measured after 15 mins in presence of H2O2 by chemiluminescence assay
Assay type: cell-based

Solved cases (3 shown):
Requested field: IC50. Item: `O=c1[nH]c(=S)n(Cc2ccccc2CN2CCC2)c2cc[nH]c12`
6.6 µM

Requested field: IC50. Item: `CC(C)NCc1ccccc1Cn1c(=S)[nH]c(=O)c2[nH]ccc21`
13 µM

Requested field: IC50. Item: `O=c1[nH]c(=S)n(C[C@H]2CCCO2)c2nc[nH]c12`
29 µM

Next molecule, IC50 to be filled in.
Requested field: IC50. Item: `CNCc1ccc(Cl)cc1Cn1c(=S)[nH]c(=O)c2[nH]ccc21`
6.1 µM

###

Reported Papp A→B at 10 µM values follow for various compounds
assay: Apparent permeability of the compound across apical to basolateral side in human Caco-2 cells at 10 uM by LC-MS/MS analysis
Respond numerically; units are ×10⁻⁶ cm/s and should not be typed.

Requested field: Papp A→B at 10 µM. Item: CN[C@H](C)c1cc(Cl)ccc1Cn1c(=S)[nH]c(=O)c2[nH]ccc21 (racemic)
19

Requested field: Papp A→B at 10 µM. Item: `C[C@@H](N)c1cc(Cl)ccc1Cn1c(=S)[nH]c(=O)c2[nH]ccc21`
11

Requested field: Papp A→B at 10 µM. Item: `CC(C)NCc1ccccc1Cn1c(=S)[nH]c(=O)c2[nH]cnc21`
0.89

Next compound, Papp A→B at 10 µM to be filled in.
Requested field: Papp A→B at 10 µM. Item: `CNCc1cc(Cl)ccc1Cn1c(=S)[nH]c(=O)c2[nH]ccc21`
17

###

experiment: Lipophilicity, log D of the compound; conditions: octanol/water
Label scheme for logD: lower than 1 is false, 1 and above is true.

Below, 2 compounds whose answers are already recorded.
Exam item: decide whether the reported logD for `CC(C)NCc1ccccc1Cn1c(=S)[nH]c(=O)c2[nH]ccc21` is at least 1.
false

Exam item: decide whether the reported logD for CN[C@H](C)c1cc(Cl)ccc1Cn1c(=S)[nH]c(=O)c2[nH]ccc21 (racemic) is at least 1.
true

New cases:
Exam item: decide whether the reported logD for `CNCc1ccc(Cl)cc1Cn1c(=S)[nH]c(=O)c2[nH]ccc21` is at least 1.
true

Exam item: decide whether the reported logD for `CNCc1c(Cl)cccc1Cn1c(=S)[nH]c(=O)c2[nH]ccc21` is at least 1.
true

Exam item: decide whether the reported logD for `CNCc1cc(Cl)ccc1Cn1c(=S)[nH]c(=O)c2[nH]ccc21` is at least 1.
true

Exam item: decide whether the reported logD for `C[C@@H](N)c1cc(Cl)ccc1Cn1c(=S)[nH]c(=O)c2[nH]ccc21` is at least 1.
true
